Let's look at some compounds and their measured Emax.
Target: LXRβ (Homo sapiens, UniProt P55055)
Construct: Co-transfection expression plasmids, comprising full-length LXRα (pCMX-h LXRα or LXRβ (pCMX-hLXRβ)); expressed in transfected cells; host or cells: CV-1 African green monkey kidney cells, transient transfection with pCMX-hLXRβ
Sequence (P55055 whole entry): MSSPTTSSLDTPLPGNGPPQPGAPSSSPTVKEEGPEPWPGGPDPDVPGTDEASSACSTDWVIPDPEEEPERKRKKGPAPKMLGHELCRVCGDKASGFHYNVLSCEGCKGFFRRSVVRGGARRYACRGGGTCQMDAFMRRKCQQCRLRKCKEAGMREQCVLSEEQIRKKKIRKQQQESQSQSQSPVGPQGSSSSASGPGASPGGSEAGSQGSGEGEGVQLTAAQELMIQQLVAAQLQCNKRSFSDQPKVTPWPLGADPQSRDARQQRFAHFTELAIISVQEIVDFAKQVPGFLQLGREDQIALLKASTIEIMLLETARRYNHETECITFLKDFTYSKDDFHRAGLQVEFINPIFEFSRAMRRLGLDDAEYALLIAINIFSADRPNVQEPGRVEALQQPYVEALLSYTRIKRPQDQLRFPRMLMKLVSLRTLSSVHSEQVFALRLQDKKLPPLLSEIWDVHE
Sequence (P19793 whole entry partner): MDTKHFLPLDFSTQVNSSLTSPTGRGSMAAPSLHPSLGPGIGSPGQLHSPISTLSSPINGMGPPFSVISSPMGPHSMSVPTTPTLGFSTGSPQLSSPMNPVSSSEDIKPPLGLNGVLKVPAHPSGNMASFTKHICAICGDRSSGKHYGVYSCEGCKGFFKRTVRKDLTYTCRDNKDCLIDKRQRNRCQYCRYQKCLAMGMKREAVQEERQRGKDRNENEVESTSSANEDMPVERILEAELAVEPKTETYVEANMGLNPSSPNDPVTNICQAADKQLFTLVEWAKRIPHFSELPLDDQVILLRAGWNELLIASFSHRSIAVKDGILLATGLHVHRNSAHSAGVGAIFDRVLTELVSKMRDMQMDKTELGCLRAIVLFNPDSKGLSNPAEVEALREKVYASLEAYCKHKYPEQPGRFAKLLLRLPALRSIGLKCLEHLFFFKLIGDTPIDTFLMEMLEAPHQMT
Assay: LXR/LXRE co-transfection assay (luciferase reporter) in CV-1 cells, LXRβ
Format: cell-based
Conditions: CV-1 cells, relative to maximum response of high control N-(3-((4-fluorophenyl)-(naphthalene-2-sulfonyl)amino)propyl)-2,2-dimethylpropionamide, read-out: LXRbeta % EFFICACY
Record the value in %, omitting the unit from your answer.

smiles-record	target-entity	units-symbol	Emax
Cn1nc(C(F)(F)C#N)cc1-c1ccc(-c2cccc(S(C)(=O)=O)c2)cc1-n1nncc1-c1ccc(OC(F)(F)F)cc1	LXRβ (Homo sapiens, UniProt P55055)	%	15

Looking up Cn1nc(C(F)(F)CO)cc1-c1ccc(-c2cc(F)c(CO)c(S(C)(=O)=O)c2)cc1-n1nncc1-c1ccc2c(c1)OC(F)(F)O2 , I found its Emax recorded as 91

Lookup result for Cc1nc(-c2ccc3c(c2)OC(F)(F)O3)c(-c2cc(-c3cc(F)c(CO)c(S(C)(=O)=O)c3)ccc2-c2cc(CS(=O)(=O)N(C)C)nn2C)o1 ; measured Emax: 24

Record Cc1c(C(C)(F)F)nn(C)c1-c1ccc(-c2cccc(S(C)(=O)=O)c2)cc1-n1nncc1-c1ccc(OC(F)(F)F)cc1 . Reported Emax: 104

Record summary for Cc1nc(-c2ccc3c(c2)OC(F)(F)O3)c(-c2cc(-c3cc(F)c(CO)c(S(C)(=O)=O)c3)ccc2-c2cc(C(=O)NCC(F)(F)F)nn2C)o1 : reported Emax = 33

The reported Emax of the compound Cc1nc(-c2ccc(OC(F)F)c(F)c2)c(-c2cc(-c3cccc(S(C)(=O)=O)c3)ccc2-n2cc(Cl)c(C(F)(F)F)n2)o1 was 83

----------
Target: LXRβ (Homo sapiens, UniProt P55055)
Construct: Co-transfection expression plasmids, comprising full-length LXRα (pCMX-h LXRα or LXRβ (pCMX-hLXRβ)); expressed in transfected cells; host or cells: CV-1 African green monkey kidney cells, transient transfection with pCMX-hLXRβ
Experiment: LXR/LXRE co-transfection assay (luciferase reporter) in CV-1 cells, LXRβ
Assay type: cell-based
Settings: CV-1 cells, relative to maximum response of high control N-(3-((4-fluorophenyl)-(naphthalene-2-sulfonyl)amino)propyl)-2,2-dimethylpropionamide, read-out: LXRbeta % EFFICACY
Hi all, reminder that labels come from Emax, split as interval 1 = under 50%, interval 2 = from 50% up to 80%, interval 3 = 80% and over

These recorded examples may help you get a feel for the data.
molecule	assigned-class
Cc1nc(-c2ccc(OC(F)(F)F)cc2)c(-c2cc(-c3cccc(S(C)(=O)=O)c3)ccc2-n2ccc(C(C)O)n2)o1 (single isomer, unassigned)	interval 2
Cc1nc(-c2ccc(OC(F)(F)F)cc2)c(-c2cc(-c3cccc(S(C)(=O)=O)c3)ccc2-n2ccc(COC(N)=O)n2)o1	interval 1
Cc1nc(-c2ccc3c(c2)OC(F)(F)O3)c(-c2cc(-c3cccc(C(C)(C)C(N)=O)c3)ccc2-n2ccc(C(N)=O)n2)o1	interval 1
Cc1nc(-c2ccc3c(c2)OC(F)(F)O3)c(-c2cc(-c3cccc(S(C)(=O)=O)c3)ccc2-c2cc(C(C)(C)O)nn2C)o1	interval 2
Cc1nc(-c2cc(-c3cccc(C4(C(N)=O)CC4)c3)ccc2-n2nc(C(F)(F)F)cc2Cl)c(-c2ccc(OC(F)(F)F)cc2)o1	interval 2
Cc1nc(-c2ccc(OC(F)F)cc2Cl)c(-c2cc(-c3cccc(S(C)(=O)=O)c3)ccc2-n2cc(Cl)c(C(F)(F)F)n2)o1	interval 2
Cc1nc(-c2cc(F)c(OC(F)F)c(F)c2)c(-c2cc(-c3cccc(S(C)(=O)=O)c3)ccc2-n2cc(Cl)c(C(F)(F)F)n2)o1	interval 2
Cc1nc(-c2ccc3c(c2)OC(F)(F)O3)c(-c2cc(-c3cc(F)c(CO)c(S(C)(=O)=O)c3)ccc2-c2cc(C(F)(F)C(=O)O)nn2C)o1	interval 2
COc1ncc(-c2nc(C)oc2-c2cc(-c3cc(F)c(CO)c(S(C)(=O)=O)c3)ccc2-n2cc(Cl)c(C(F)(F)F)n2)cn1	interval 3
Cc1cc(C(C)(F)F)nn1-c1ccc(-c2cccc(S(C)(=O)=O)c2)cc1-n1nncc1-c1ccc(OC(F)(F)F)cc1	interval 1

Exercise: # bin lookup: classify Cc1nc(-c2ccc3c(c2)OC(F)(F)O3)c(-c2cc(-c3cc(F)c(CO)c(S(C)(=O)=O)c3)ccc2-c2cc(C(F)(F)C(=O)N(C)C)nn2C)o1 by its Emax
Key: interval 2

Exercise: Which class does Cc1nc(-c2ccc(OC(F)(F)F)cc2)c(-c2cc(-c3cccc(S(C)(=O)=O)c3)ccc2-c2cc(C(=O)NCC(C)(C)O)nn2C)o1 fall in?
Key: interval 1

Exercise: Bin? Cc1nc(-c2ccc(OC(F)(F)F)cc2)c(-c2cc(-c3cccc(S(C)(=O)=O)c3)ccc2-c2cc(C(F)(F)C(N)=O)nn2C)o1
Key: interval 1

Exercise: Bin this entry: Cc1nc(-c2ccc(OC(F)(F)F)cc2)c(-c2cc(-c3cc(F)c(CO)c(S(C)(=O)=O)c3)ccc2-n2cc(C#N)c(C3CC3)n2)o1
Key: interval 1

Exercise: Where would COCC(F)(F)c1cc(-c2ccc(-c3cc(F)c(CO)c(S(C)(=O)=O)c3)cc2-n2nncc2-c2ccc(OC(F)(F)F)cc2)n(C)n1 land among the classes by reported Emax?
Key: interval 3
